studyTarget: PI3K (p110α/p85α) (Homo sapiens, UniProt P42336)
Construct: purchased Carna Biosciences 07CBS-0402A
Sequence (P42336 whole entry): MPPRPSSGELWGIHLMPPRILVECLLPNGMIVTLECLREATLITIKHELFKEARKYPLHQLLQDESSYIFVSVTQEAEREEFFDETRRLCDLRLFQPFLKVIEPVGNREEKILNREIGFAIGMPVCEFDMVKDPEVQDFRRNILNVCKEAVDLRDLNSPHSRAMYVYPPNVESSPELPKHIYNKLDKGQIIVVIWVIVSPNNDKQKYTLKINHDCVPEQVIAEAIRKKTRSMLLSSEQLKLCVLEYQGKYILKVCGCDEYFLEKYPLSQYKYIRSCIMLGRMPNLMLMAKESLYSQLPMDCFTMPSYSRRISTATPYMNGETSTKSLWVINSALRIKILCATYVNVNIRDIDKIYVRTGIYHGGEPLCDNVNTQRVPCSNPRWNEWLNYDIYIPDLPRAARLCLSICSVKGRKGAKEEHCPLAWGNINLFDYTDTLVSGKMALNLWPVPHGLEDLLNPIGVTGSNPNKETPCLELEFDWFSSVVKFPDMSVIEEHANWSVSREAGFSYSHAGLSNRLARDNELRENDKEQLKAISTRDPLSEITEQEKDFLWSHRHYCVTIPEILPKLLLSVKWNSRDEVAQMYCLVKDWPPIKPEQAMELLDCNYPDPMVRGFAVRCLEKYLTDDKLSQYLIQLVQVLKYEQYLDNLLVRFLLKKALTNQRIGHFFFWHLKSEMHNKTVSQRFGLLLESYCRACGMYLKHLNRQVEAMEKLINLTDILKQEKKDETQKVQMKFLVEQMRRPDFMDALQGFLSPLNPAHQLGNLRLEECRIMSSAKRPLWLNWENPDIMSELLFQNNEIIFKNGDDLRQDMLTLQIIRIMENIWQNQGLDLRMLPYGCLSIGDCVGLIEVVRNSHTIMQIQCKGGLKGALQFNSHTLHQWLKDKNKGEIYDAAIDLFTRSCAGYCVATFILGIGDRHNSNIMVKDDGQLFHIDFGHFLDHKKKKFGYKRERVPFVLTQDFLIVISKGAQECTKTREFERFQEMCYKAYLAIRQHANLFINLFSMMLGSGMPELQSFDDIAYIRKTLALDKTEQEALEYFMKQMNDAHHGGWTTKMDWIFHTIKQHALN
Sequence (P27986 whole entry partner): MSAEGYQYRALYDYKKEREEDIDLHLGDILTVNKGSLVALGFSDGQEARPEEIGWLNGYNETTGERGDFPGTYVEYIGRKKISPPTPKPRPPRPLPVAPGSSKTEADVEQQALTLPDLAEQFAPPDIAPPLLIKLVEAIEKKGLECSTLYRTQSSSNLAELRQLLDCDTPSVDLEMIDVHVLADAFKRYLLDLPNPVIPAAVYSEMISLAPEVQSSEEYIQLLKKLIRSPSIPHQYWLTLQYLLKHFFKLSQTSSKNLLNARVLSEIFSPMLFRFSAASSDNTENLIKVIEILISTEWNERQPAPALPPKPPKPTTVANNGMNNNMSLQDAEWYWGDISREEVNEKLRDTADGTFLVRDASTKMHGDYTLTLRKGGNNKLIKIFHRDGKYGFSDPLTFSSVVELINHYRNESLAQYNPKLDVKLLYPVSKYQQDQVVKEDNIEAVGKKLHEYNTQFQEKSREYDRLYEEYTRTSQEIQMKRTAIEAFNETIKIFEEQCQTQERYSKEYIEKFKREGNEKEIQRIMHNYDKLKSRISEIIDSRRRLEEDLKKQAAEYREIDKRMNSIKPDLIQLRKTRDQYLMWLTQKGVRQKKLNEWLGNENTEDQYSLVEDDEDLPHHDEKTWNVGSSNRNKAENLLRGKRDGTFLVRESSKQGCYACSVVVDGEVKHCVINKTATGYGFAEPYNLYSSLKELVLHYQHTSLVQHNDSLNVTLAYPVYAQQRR
assayProtocol: PI3K Activity Assay (ADP Hunter Plus)
Assay type: biochemical
recordedConditions: quantitative results; read-out: PI3Kα IC50
propertyMeasured: pIC50
Please note pIC50 is a logarithmic value: minus log10 of concentration in mol/L. Answer with that number alone.

Inquiry: Endpoint output: pIC50 of CCOC(=O)c1cn2cc(-c3cccc(O)c3)nc(N3CCOCC3)c2n1 . Value?
Reply text: 6.80

Inquiry: What pIC50 value was documented for this compound, CC(C)(C)OC(=O)N1CCN(Cc2cn3cc(-c4cccc(O)c4)nc(N4CCOCC4)c3n2)CC1 ?
Reply text: 6.32

Inquiry: Would you mind telling me what pIC50 value was observed for CC(=O)N1CCN(Cc2cn3cc(-c4cccc(O)c4)nc(N4CCOCC4)c3n2)CC1 ?
Reply text: 6.35

Inquiry: State the recorded pIC50 for this entry: CS(=O)(=O)N1CCN(C(=O)c2cn3cc(-c4cccc(O)c4)nc(N4CCOCC4)c3n2)CC1
Reply text: 7.36

Inquiry: Which pIC50 is reported for this compound? Cc1cn2cc(-c3cccc(NS(C)(=O)=O)c3)nc(N3CCOCC3)c2n1
Reply text: 4.30
